- targetOrSystem: T1, PAC1 receptor (UniProt P41586 21-468, limits assumed)
- T1 sequence (looked up): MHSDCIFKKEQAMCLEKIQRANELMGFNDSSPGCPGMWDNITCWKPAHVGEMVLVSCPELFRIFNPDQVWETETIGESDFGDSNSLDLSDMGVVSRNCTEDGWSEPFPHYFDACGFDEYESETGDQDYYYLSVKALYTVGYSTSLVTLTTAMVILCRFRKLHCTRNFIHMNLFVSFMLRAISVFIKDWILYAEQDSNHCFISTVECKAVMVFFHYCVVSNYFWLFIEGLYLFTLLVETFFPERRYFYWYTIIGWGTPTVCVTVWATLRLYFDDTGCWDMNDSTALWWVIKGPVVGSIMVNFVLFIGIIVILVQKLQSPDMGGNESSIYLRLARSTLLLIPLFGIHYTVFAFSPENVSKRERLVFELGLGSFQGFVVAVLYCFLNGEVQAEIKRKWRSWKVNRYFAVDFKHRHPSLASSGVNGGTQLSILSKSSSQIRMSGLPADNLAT
- assayRemarks: cell-based or functional assay
endpoint: EC50 (PAC1R), cAMP inducing effect (nM)

{"binder": "HSXGIFTXSYSRYRKQAAVKKYLAAVL (N-terminal acetyl (Ac-); Tz (aspartic acid with carboxyl group replaced by tetrazole) at positions 3 and 8; C-terminal amide (NH2)) [Peptide 18]", "units": "nM", "numericValue": 0.061}
{"binder": "HAXGIFTXSYSRYRKQLAVKKYLAAVL (N-terminal acetyl (Ac-); Tz (aspartic acid with carboxyl group replaced by tetrazole) at positions 3 and 8; C-terminal amide (NH2)) [Peptide 14]", "units": "nM", "numericValue": 0.074}
{"binder": "HSXGIFTXSYSRYRKQMAVKKYLAAVL (Tz (aspartic acid with carboxyl group replaced by tetrazole) at positions 3 and 8; C-terminal amide (NH2)) [Peptide 5]", "units": "nM", "numericValue": 0.033}
{"binder": "HSXGIFTXSYSRYRKXLAVKKYLAAVL (N-terminal acetyl (Ac-); Tz (aspartic acid with carboxyl group replaced by tetrazole) at positions 3 and 8; egTz (glutamine with amide replaced by tetrazole) at position 16; C-terminal amide (NH2)) [Peptide 13]", "units": "nM", "numericValue": 0.132}
